Protein target, amino acids: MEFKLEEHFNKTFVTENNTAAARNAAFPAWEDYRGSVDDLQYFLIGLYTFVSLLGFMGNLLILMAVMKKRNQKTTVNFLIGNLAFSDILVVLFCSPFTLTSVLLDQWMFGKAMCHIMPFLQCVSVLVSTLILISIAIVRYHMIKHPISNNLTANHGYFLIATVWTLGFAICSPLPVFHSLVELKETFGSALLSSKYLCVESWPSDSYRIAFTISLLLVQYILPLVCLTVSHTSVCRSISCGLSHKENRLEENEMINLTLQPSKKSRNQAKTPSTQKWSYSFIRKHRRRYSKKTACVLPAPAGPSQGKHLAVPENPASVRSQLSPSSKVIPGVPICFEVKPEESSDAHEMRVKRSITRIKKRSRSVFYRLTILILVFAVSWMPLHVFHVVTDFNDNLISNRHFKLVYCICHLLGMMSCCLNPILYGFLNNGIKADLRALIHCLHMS
readout: Ki (nM)

[
  {
    "molecule": "N=C(N)NCCCC(NC(=O)C(c1ccccc1)c1ccccc1)C(=O)NCc1ccc(O)cc1 (configuration not stated)",
    "readout": "Ki",
    "data value": 1000
  },
  {
    "molecule": "CC[C@H](C)[C@H](NC(=O)[C@H](Cc1ccc(O)cc1)NC(=O)[C@H](Cc1cnc[nH]1)NC(=O)[C@H](CCCN=C(N)N)NC(=O)[C@H](CC(C)C)NC(=O)[C@H](C)NC(=O)[C@@H](N)CO)C(=O)N[C@@H](CC(N)=O)C(=O)N[C@@H](CC(C)C)C(=O)N[C@H](C(=O)N[C@H](C(=O)N[C@@H](CCCN=C(N)N)C(=O)N[C@@H](CCC(N)=O)C(=O)N[C@@H](CCCN=C(N)N)C(=O)N[C@@H](Cc1ccc(O)cc1)C(N)=O)[C@@H](C)O)[C@@H](C)CC",
    "readout": "Ki",
    "data value": 1000
  }
]
